measured-property: melting point (°C)
Express the result in °C but write the number alone.

Worked set:
OCc1ccccc1C=C1c2ccccc2CCc2ccccc21 [Example 74] | 121.8
Cc1ccc(C=C2c3ccccc3CCc3ccccc32)c(S(=O)(=O)NCc2ccccc2)c1 [Example 15] | 138.3
COc1cccc(C=C2c3ccccc3CCc3ccccc32)c1 [Example 32] | 83
N#Cc1ccccc1C=C1c2ccccc2CCc2ccccc21 [Example 80] | 185.4
Oc1cccc(/C=C2/c3ccc(Cl)cc3CCc3cccnc32)c1 [Example 244] | 221.2
COc1ccc(C=C2c3ccccc3CCc3ccccc32)cc1NS(C)(=O)=O [Example 97] | 192.1
CC(=O)Nc1ccc(C=C2c3ccccc3CCc3ccccc32)cc1 [Example 116] | 134.8
O=S(=O)(Nc1cccc(C=C2c3ccccc3CCc3ccccc32)c1)c1ccccc1 [Example 93] | 121.9

Read the next record carefully.
The reported melting point of the compound N#Cc1cccc(C=C2c3ccccc3CCc3ccccc32)c1 [Example 81] was 115.7
